- Test system: A549 cells
- measurement.notes: MTT assay, percent survival of A549 cells
- Type: cell-based
- stated.conditions: Table 1; A549; 20 μM
Attribute: Percent Survival
quantity: Percent Survival (%)

compound=[NH2][Pt]([NH2])([Cl])([Cl])([N+](=O)[O-])[o+]1c2cc(=O)ccc-2c(-c2ccccc2C(=O)O)c2ccc(O)cc21 experimental_result=102.9478
compound=CCN(CC)c1ccc2c(-c3ccccc3C(=O)O)c3ccc(=[N+](CC)CC)cc-3[o+]([Pt]([NH2])([NH2])([Cl])([Cl])[N+](=O)[O-])c2c1.[Cl-] experimental_result=97.3190
compound="N.N.[Cl][Pt][Cl] [Cis-Pt, Cis-diammineoplatinum(II) dichloride, reference compound]" experimental_result=98.3779
compound="[NH2][Pt]([NH2])([Cl])([Cl])([N]1C(=O)CC(C(=O)O)NC1=O)[N+](=O)[O-] (stereo not shown)" experimental_result=100.5082

---

- System: A549 cells
- measurement.notes: MTT assay, percent survival of A549 cells
- Type: cell-based
- stated.conditions: Table 3; A549; 50 μM
quantity: Percent Survival (%)

compound="[NH2][Pt]([NH2])([Cl])([Cl])[N+](=O)[O-].c1ccc(-c2oc(-c3ccccc3)c3ccccc23)cc1 [CPA-41]" tgt="A549 cells" quantity="Percent Survival" experimental_result=14.9290
compound="Nc1cccc2c(=O)[nH][n]([Pt]([NH2])([NH2])([Cl])([Cl])[N+](=O)[O-])c(=O)c12 [CPA-51]" tgt="A549 cells" quantity="Percent Survival" experimental_result=38.2824
compound="CCN(CC)c1ccc2c(-c3ccccc3C(=O)O)c3ccc(=[N+](CC)CC)cc-3[o+]([Pt]([NH2])([NH2])([Cl])([Cl])[N+](=O)[O-])c2c1.[Cl-] [CPA-46]" tgt="A549 cells" quantity="Percent Survival" experimental_result=25.7153
compound="[NH2][Pt]([NH2])([Cl])([Cl])([N]1C(=O)CC(C(=O)O)NC1=O)[N+](=O)[O-] (centres unmarked) [CPA-55]" tgt="A549 cells" quantity="Percent Survival" experimental_result=20.0336
compound="N.N.[Cl][Pt][Cl] [Cis-Pt, Cis-diammineoplatinum(II) dichloride, reference compound]" tgt="A549 cells" quantity="Percent Survival" experimental_result=52.5114
compound="CC(C)(C(=O)O)C(O)(C(=O)O)C(C)(C)C(=O)[O][Pt]([NH2])([NH2])([Cl])([Cl])[N+](=O)[O-] (centres unmarked) [CPA-31]" tgt="A549 cells" quantity="Percent Survival" experimental_result=24.7616
compound="[NH2][Pt]([NH2])([Cl])([Cl])([N+](=O)[O-])[o+]1c2cc(=O)ccc-2c(-c2ccccc2C(=O)O)c2ccc(O)cc21 [CPA-39]" tgt="A549 cells" quantity="Percent Survival" experimental_result=26.8779
compound="N[N](c1cc([N+](=O)[O-])cc([N+](=O)[O-])c1)[Pt]([NH2])([NH2])([Cl])([Cl])[N+](=O)[O-] [CPA-43]" tgt="A549 cells" quantity="Percent Survival" experimental_result=18.9979
